- TARGET_UNDER_TEST: Sodium-dependent serotonin transporter (Homo sapiens)
- Sequence (P31645 whole entry): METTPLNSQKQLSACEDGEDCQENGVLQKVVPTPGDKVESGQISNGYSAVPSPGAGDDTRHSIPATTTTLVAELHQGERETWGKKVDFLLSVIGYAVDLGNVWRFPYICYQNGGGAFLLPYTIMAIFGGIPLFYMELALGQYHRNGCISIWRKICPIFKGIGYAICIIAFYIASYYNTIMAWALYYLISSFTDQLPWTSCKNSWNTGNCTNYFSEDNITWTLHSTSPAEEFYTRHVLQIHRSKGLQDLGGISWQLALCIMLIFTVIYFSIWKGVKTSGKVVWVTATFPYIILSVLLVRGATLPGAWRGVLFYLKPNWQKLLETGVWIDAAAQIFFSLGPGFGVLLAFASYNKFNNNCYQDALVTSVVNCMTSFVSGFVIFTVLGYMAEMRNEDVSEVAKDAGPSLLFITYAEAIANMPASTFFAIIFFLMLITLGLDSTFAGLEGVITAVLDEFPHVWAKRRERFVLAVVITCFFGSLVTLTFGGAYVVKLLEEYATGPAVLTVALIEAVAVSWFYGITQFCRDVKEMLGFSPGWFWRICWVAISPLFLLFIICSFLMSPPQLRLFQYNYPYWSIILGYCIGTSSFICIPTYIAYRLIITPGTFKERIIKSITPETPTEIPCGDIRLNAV
- PROCEDURE_DETAILS: Displacement of [3H] imipramine from human recombinant 5-HT transporter measured after 60 mins by scintillation counter method
EXPERIMENTAL_ENDPOINT: pIC50
One number for each entry, as −log10 of the molar value.

Query: For the compound shown here, `CC(C)CCO[C@@H]1[C@H]2OC(C)(C)O[C@H]2[C@H]2Cn3cc(nn3)COCCCCCCN(CCc3ccc4ccccc4c3)CC[C@H]1O2` , give the reported pIC50.
Reply: 5.13

====

- TARGET_UNDER_TEST: 5-hydroxytryptamine receptor 2C (Homo sapiens, UniProt P28335)
- Sequence (P28335 whole entry): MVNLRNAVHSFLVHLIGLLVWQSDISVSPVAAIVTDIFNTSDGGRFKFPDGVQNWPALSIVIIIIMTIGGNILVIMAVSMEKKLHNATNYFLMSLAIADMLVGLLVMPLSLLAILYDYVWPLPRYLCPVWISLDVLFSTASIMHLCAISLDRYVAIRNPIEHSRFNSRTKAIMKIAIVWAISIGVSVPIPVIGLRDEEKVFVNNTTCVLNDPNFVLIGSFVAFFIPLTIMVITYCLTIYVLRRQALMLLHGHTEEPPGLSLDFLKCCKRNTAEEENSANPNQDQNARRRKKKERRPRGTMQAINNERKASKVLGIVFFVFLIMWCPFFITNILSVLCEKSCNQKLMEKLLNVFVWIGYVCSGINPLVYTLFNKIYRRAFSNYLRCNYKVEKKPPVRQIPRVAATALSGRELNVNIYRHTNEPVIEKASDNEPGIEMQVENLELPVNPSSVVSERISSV
- PROCEDURE_DETAILS: Displacement of [3H] mesulergine from human recombinant 5-HT2C receptor measured after 120 mins by scintillation counter method
EXPERIMENTAL_ENDPOINT: Ki

Query: I have this molecule here, `CC(C)CCO[C@@H]1[C@H]2OC(C)(C)O[C@H]2[C@H]2Cn3cc(nn3)COCCCCCCN(CCc3ccc4ccccc4c3)CC[C@H]1O2` , and I need its recorded Ki.
Reply: > 100 µM

====

- PROCEDURE_DETAILS: Displacement of [3H] batrachotoxinin from rat sodium channel site 2 measured after 60 mins by scintillation counter method
Consider the following molecules; for each one, report its pIC50.
Numbers only, as −log10 of the molar value.

Query: # get_value(readout='pIC50', item= `CC(C)CCO[C@@H]1[C@H]2OC(C)(C)O[C@H]2[C@H]2Cn3cc(nn3)COCCCCCCN(CCc3ccc4ccccc4c3)CC[C@H]1O2` )
Reply: 6.92

Batch: pIC50 for all items listed.
1. COc1ccc(C(=O)O[C@H]2CC[C@@]3(C)[C@@H]4CC[C@H]5[C@]6(O)C[C@H](O)[C@@]7(O)[C@@H](CN8C[C@@H](C)CC[C@H]8[C@@]7(C)O)[C@]6(O)C[C@@]53O[C@]24O)cc1OC
2. CC(C)CCO[C@@H]1[C@H]2OC(C)(C)O[C@H]2[C@H]2COCc3cn(nn3)C[C@H]3O[C@H](CCN(CCc4ccc5ccccc5c4)CC[C@H]1O2)[C@H](OCCC(C)C)[C@H]1OC(C)(C)O[C@H]13

Reply:
[5.05, 6.34]
